tested on: HIV; experiment: MT4 Assay (anti-HIV activity); assay type: cell-based; details: Human immunodeficiency virus 1, MT4, 96 h, read-out: HIV MT4 Assay IC50
pIC50: −log10 of the molar value.
Would you mind labelling by pIC50? At or over 8 is satisfied, under is not satisfied.

# compound, discreteLabel
measured = [
    ("Cc1c(-c2c(C)c3c(c(C)c2[C@H](OC(C)(C)C)C(=O)O)C(=O)N(Cc2ccccc2)C3)cc(F)c2c1CCCO2 (atropisomer, axis not shown; (M)) [Example 5]", "satisfied"),
]

[ask] Does Cc1c2c(c(C)c([C@H](OC(C)(C)C)C(=O)O)c1C1=CCC(C)(C)CC1)C(=O)N(Cc1ccccc1)C2 [Example 6] have a reported pIC50 of at least 8?
[reply] not satisfied

[ask] Does Cc1c2c(c(C)c(C(OC(C)(C)C)C(=O)O)c1-c1ccc3c(c1)CCCO3)C(=O)N(Cc1ccccc1)C2 (stereo not shown) [Example 4] have a reported pIC50 of at least 8?
[reply] not satisfied

[ask] Does Cc1c2c(c(C)c(C(OC(C)(C)C)C(=O)O)c1-c1ccc(Cl)cc1)C(=O)N(Cc1ccccc1)C2 (stereo not shown) [Example 3] have a reported pIC50 of at least 8?
[reply] not satisfied

[ask] Does Cc1ccc(-c2c(C)c3c(c(C)c2C(OC(C)(C)C)C(=O)O)C(=O)N(Cc2ccccc2)C3)cc1 (stereo not shown) [Example 1] have a reported pIC50 of at least 8?
[reply] not satisfied

[ask] Does Cc1ccc(-c2c(C)c3c(c(C)c2[C@H](OC(C)(C)C)C(=O)O)C(=O)N(Cc2ccccc2)C3)cc1 [Example 2] have a reported pIC50 of at least 8?
[reply] not satisfied
